assay: Acid base constant value for N3 atom; type: ADME; settings: read-out: pKa3
ASSAY METRIC: pKa

>>> test_result("C(CNC1CCNCC1)CNC1CCNCC1")
8.88
>>> test_result("C(CCNC1CCNCC1)CNC1CCNCC1")
9.02
>>> test_result("CCNCCCNCCCNCCCNCC [BIS(ETHYL)NORSPERMINE]")
8.51
>>> test_result("CCNCCCCNCCCCNCCCCNCC [DIETHYLHOMOSPERMINE]")
9.73
>>> test_result("NCCCNCCCNCCCN [THERMINE]")
8.35
>>> test_result("NCCCCNCCCCNCCCCN")
9.57
>>> test_result("C(CCNCCC1CCNCC1)CNCCC1CCNCC1")
10
>>> test_result("CCNCCCNCCCCNCCCNCC [BIS(ETHYL)SPERMINE]")
9.42

---

experiment: Acid base constant value for N4 atom; type: ADME; settings: read-out: pKa4
Short version: pKa at least 8 is Met, less is Not met.

>>> class_label("c1cc(NCCCNc2ccncc2)ccn1")
"Not met"
>>> class_label("NCCCNCCCNCCCN")
"Not met"
>>> class_label("CCNCCCNCCCNCCCNCC [BIS(ETHYL)NORSPERMINE]")
"Not met"
>>> class_label("C(CCNCCC1CCNCC1)CNCCC1CCNCC1")
"Met"
>>> class_label("C(CCNC1CCNCC1)CNC1CCNCC1")
"Not met"
>>> class_label("C(CNC1CCNCC1)CNC1CCNCC1")
"Not met"
>>> class_label("CCNCCCCNCCCCNCCCCNCC")
"Met"
>>> class_label("NCCCCNCCCCNCCCCN")
"Met"
>>> class_label("CCNCCCNCCCCNCCCNCC [BIS(ETHYL)SPERMINE]")
"Met"

---

assay: Acid base constant value for N2 atom; type: ADME; settings: read-out: pKa2
Examples of compounds with documented pKa follow.
ASSAY METRIC: pKa

>>> test_result("C(CCNC1CCNCC1)CNC1CCNCC1")
10.7
>>> test_result("C(CNC1CCNCC1)CNC1CCNCC1")
10.7
>>> test_result("c1cc(NCCCNc2ccncc2)ccn1")
9.14
>>> test_result("NCCCNCCCNCCCN")
9.8
>>> test_result("NCCCCNCCCCNCCCCN")
10.4
>>> test_result("CCNCCCCNCCCCNCCCCNCC")
10.8
>>> test_result("CCNCCCNCCCCNCCCNCC [BIS(ETHYL)SPERMINE]")
10.8
>>> test_result("CCNCCCNCCCNCCCNCC [BIS(ETHYL)NORSPERMINE]")
9.91
>>> test_result("C(CCNCCC1CCNCC1)CNCCC1CCNCC1")
10.8
